Molecular target: recombinant DYRK1A kinase (Homo sapiens (Human), UniProt Q13627)
Assay: DYRK1A kinase assay (Ser/Thr 18 peptide Z-lyte FRET);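 further: Read-out is the coumarin to fluorescein emission ratio, referenced to unphosphorylated (0%) and phosphorylated (100%) Ser/Thr 18 peptide controls, values from dose-response curves by non-linear regression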
Details: 30 μM ATP, 1 h room temperature
pEC50: −log10 of the molar value.
measured-parameter: pEC50

1. Cc1ncc(-c2ccc3cnc(NC(=O)CN4CCOCC4)cc3c2)o1: 7.73
2. CN1CCN(C(=O)[C@H]2CC[C@H](C(=O)Nc3cc4cc(-c5cnn(C)c5)ccc4cn3)CC2)CC1: 8.85
3. O=C(Nc1cc2cc(-c3cnn(C4CC4)c3)ccc2cn1)C1CCN(CCC(F)(F)F)CC1: 7.63
4. CN1CCC(C(=O)Nc2cc3cc(-c4nnc(N(C)C)o4)ccc3cn2)CC1: 8.08
5. [2H]C([2H])(C(=O)Nc1cc2cc(-c3nnc(C)s3)ccc2cn1)N1CCOCC1: 7.84
6. Cn1cc(-c2ccc3cnc(NC(=O)CN4C[C@H]5C[C@@H]4CO5)cc3c2)cn1: 8.00
7. Cn1cc(-c2ccc3cnc(NC(=O)C4CCN(Cc5ncccn5)CC4)cc3c2)cn1: 8.68
8. Cn1cc(-c2ccc3cnc(NC(=O)C4CCN(Cc5ccccc5)CC4)cc3c2)cn1: 8.42

* * *

System: Tau phosphorylation at Ser396 (pSer396)
Assay: Tau phosphorylation assay (pSer396 ELISA / western blot) in SH-SY5Y cells
Assay type: cell-based, human
Details: Homo sapiens; SH-SY5Y cells, overnight (16-18 h) exposure; read-out: pSer396 Tau EC50
Below, each entry is listed alongside its reported EC50.
measured-parameter: EC50 (nM)

1. CN(C)[C@H]1CC[C@H](C(=O)Nc2cc3cc(-c4cncs4)ccc3cn2)CC1: 449
2. CC(C)CN1CCC(F)(C(=O)Nc2cc3cc(-c4cnn(C)c4)ccc3cn2)CC1: 2000
3. Cc1nnc(-c2ccc3cnc(NC(=O)CN4C[C@H]5C[C@@H]4CO5)cc3c2)s1: 233
4. Cc1ncc(-c2ccc3cnc(NC(=O)C4CCC(F)(F)CC4)cc3c2)n1C: 1030
5. COCCN1CCC(C(=O)Nc2cc3cc(-c4cncn4C)ccc3cn2)CC1: 379
6. O=C(Nc1cc2cc(-c3cnco3)ccc2cn1)[C@H]1CC[C@@H](N2CCOCC2)CC1: 569
7. [2H]C([2H])([2H])n1cc(-c2ccc3cnc(NC(=O)CN4CCN(C)CC4)cc3c2)cn1: 767

* * *

Below, each entry is listed alongside its reported pEC50.
Molecular target: recombinant DYRK1A kinase (Homo sapiens (Human))
Test: DYRK1A kinase assay (Ser/Thr 18 peptide Z-lyte FRET)
Details: 30 μM ATP, 1 h room temperature
pEC50: −log10 of the molar value.
measured-parameter: pEC50

1) Cn1cc(-c2ccc3cnc(NC(=O)CN4CCOCC4)cc3c2)cn1 [Compound 338]: 8.21
2) Cn1cc(-c2ccc3cnc(NC(=O)C4CCN(C(=O)c5ccccc5)CC4)cc3c2)cn1 [Compound 328]: 8.72
3) CN1CCN(CC(=O)Nc2cc3cc(-c4cnn5c4CN(CCF)CC5)ccc3cn2)CC1 [Compound 1024]: 7.77
4) O=C(Nc1cc2cc(-c3cnc4n3CCNC4)ccc2cn1)[C@@H]1CCCNC1 [Compound 988]: 7.60

* * *

Test system: Tau phosphorylation at Ser396 (pSer396)
Assay: Tau phosphorylation assay (pSer396 ELISA / western blot) in SH-SY5Y cells;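 further: EC50 for reduction of Tau pSer396 in lysed cells, measured by colorimetric ELISA or chemiluminescent western blot, both using the same pSer396 antibody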
Assay type: cell-based, human
Conditions: Homo sapiens, SH-SY5Y, read-out: pSer396 Tau EC50
Below, each entry is listed alongside its reported EC50.
measured-parameter: EC50 (nM)

1. Cn1cncc1-c1ccc2cnc(NC(=O)C3C(C)(C)C3(C)C)cc2c1: 4300
2. Cn1cc(-c2ccc3cnc(NC(=O)C4C(C)(C)C4(C)C)cc3c2)nn1: 1080
3. Cn1cc(-c2ccc3cnc(NC(=O)CN4C5CCC4CC5)cc3c2)cn1: 1350
4. Cc1nnc(-c2ccc3cnc(NC(=O)CN4C5CCC4CC5)cc3c2)s1: 443
5. O=C(CN1C2CCC1CC2)Nc1cc2cc(-c3cnn4c3CN(CCF)CC4)ccc2cn1: 1500
